System: KCL-22
ASSAY_COMMENT: Cytotoxicity against human KCL22 cells assessed as reduction in cell viability after 48 hrs by MTS assay
Type: functional, cell-based
TEST_CONDITIONS: Homo sapiens, KCL-22, 48 h
MEASUREMENT_TYPE: IC50
Could you kindly put the unit after your number?

Here are 2 molecules together with their reported answers.
{"MOLECULE": "CN1CCN(CCO/N=C2/C(=C3/C(=O)Nc4cc(Br)ccc43)Nc3ccccc32)CC1", "SYSTEM_UNDER_TEST": "KCL-22", "IC50": "0.9 µM"}
{"MOLECULE": "O=C1Nc2cc(Br)ccc2/C1=C1/Nc2ccccc2/C1=N\\OCCN1CCN(CCO)CC1", "SYSTEM_UNDER_TEST": "KCL-22", "IC50": "0.83 µM"}

Task: Name the value of IC50 reported for O=C1Nc2cc(Br)ccc2/C1=C1/Nc2ccccc2/C1=N\OCC(O)CO (stereo not drawn) when tested on KCL-22.
Output: 0.75 µM

* * *

Please provide measured IC50 for the entries that follow.
SYSTEM_UNDER_TEST: Aurora kinase A (Homo sapiens)
Sequence (O14965 whole entry): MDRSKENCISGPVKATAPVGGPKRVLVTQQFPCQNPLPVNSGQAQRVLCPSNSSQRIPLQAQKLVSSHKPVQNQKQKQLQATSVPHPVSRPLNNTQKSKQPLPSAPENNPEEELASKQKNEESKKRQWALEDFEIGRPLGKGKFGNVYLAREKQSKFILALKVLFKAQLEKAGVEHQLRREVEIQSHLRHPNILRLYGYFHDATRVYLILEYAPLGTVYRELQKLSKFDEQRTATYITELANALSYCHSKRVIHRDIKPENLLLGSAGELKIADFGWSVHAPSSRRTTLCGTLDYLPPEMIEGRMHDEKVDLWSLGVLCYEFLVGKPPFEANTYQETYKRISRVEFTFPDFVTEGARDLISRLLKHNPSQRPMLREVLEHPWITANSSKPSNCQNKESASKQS
ASSAY_COMMENT: Inhibition of recombinant Aurora A (unknown origin) after 120 mins in presence of [33P]ATP

{"COMPOUND": "O=C1Nc2cc(Br)ccc2/C1=C1/Nc2ccccc2/C1=N\\OCCN1CCN(CCOCCO)CC1", "IC50": "14.9 nM"}
{"COMPOUND": "CN(CCO/N=C1/C(=C2/C(=O)Nc3cc(Br)ccc32)Nc2ccccc21)CC(O)CO (configuration not stated)", "IC50": "9.7 nM"}

We next turn to a different compound, shown below.
Task: Supply IC50 value. Item: `O=C1Nc2cc(Br)ccc2/C1=C1/Nc2ccccc2/C1=N\OCCN1CCNCC1`
Output: 7.1 nM

* * *

Please provide measured pIC50 for the entries that follow.
SYSTEM_UNDER_TEST: Tyrosine-protein kinase ABL1 (Homo sapiens, UniProt P00519, T315I)
ASSAY_COMMENT: Inhibition of recombinant ABL1 T315I mutant (unknown origin) after 120 mins in presence of [33P]ATP
Answers are plain numbers, as −log10 of the molar value.

{"SMILES_INPUT": "O=C1Nc2cc(Br)ccc2/C1=C1/Nc2ccccc2/C1=N\\OCCN1CCN(CCOCCO)CC1", "TEST_RESULT": 5.29}

Task: Supply pIC50 value. Item: `O=C1Nc2cc(Br)ccc2/C1=C1/Nc2ccccc2/C1=N\OCCN1CCNCC1`
Output: 8.03

* * *

Please provide measured pIC50 for the entries that follow.
SYSTEM_UNDER_TEST: Proto-oncogene tyrosine-protein kinase Src (Homo sapiens)
ASSAY_COMMENT: Inhibition of recombinant c-Src (unknown origin) after 120 mins in presence of [33P]ATP
Numbers only, as −log10 of the molar value.

{"SMILES_INPUT": "O=C1Nc2cc(Br)ccc2/C1=C1/Nc2ccccc2/C1=N\\OCCN1CCCC1", "pIC50": 8.66}

We next turn to a different compound, shown below.
Task: Supply pIC50 value. Item: `COCCN1CCN(CCO/N=C2/C(=C3/C(=O)Nc4cc(Br)ccc43)Nc3ccccc32)CC1`
Output: 8.41

* * *

SYSTEM_UNDER_TEST: Proto-oncogene tyrosine-protein kinase Src (Homo sapiens, UniProt P12931)
Sequence (P12931 2-536 limits assumed): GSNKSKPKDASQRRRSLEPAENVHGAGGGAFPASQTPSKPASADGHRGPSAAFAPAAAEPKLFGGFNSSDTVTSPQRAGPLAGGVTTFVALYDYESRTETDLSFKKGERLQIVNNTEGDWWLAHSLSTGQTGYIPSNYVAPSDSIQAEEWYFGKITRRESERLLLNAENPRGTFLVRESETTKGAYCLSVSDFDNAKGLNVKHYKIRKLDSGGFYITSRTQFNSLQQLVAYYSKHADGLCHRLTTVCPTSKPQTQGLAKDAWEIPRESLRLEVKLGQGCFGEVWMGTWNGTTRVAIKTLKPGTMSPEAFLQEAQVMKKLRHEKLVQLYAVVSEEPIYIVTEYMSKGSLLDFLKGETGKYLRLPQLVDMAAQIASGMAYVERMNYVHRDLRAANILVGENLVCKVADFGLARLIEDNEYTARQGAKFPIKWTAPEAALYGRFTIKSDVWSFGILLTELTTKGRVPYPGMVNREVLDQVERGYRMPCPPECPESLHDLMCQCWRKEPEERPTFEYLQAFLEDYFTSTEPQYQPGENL
ASSAY_COMMENT: Inhibition of recombinant c-Src (unknown origin) after 120 mins in presence of [33P]ATP
MEASUREMENT_TYPE: pIC50
Give bare numbers, as −log10 of the molar value.

{"SMILES_INPUT": "COCCN1CCN(CCO/N=C2/C(=C3/C(=O)Nc4cc(Br)ccc43)Nc3ccccc32)CC1", "SYSTEM_UNDER_TEST": "Proto-oncogene tyrosine-protein kinase Src (Homo sapiens, UniProt P12931)", "TEST_RESULT": 8.77}
{"SMILES_INPUT": "O=C1Nc2cc(Br)ccc2/C1=C1/Nc2ccccc2/C1=N\\OCCN1CCN(CCOCCO)CC1", "SYSTEM_UNDER_TEST": "Proto-oncogene tyrosine-protein kinase Src (Homo sapiens, UniProt P12931)", "TEST_RESULT": 9.08}

We next turn to a different compound, shown below.
Task: Supply pIC50 value. Item: `O=C1Nc2cc(Br)ccc2/C1=C1/Nc2ccccc2/C1=N\OCCN1CCCC1`
Output: 8.31

* * *

SYSTEM_UNDER_TEST: Tyrosine-protein kinase ABL1 (Homo sapiens)
ASSAY_COMMENT: Inhibition of recombinant ABL1 (unknown origin) after 120 mins in presence of [33P]ATP
pIC50: −log10 of the molar value.
Output condition met for pIC50 not less than 7; output condition not met otherwise.

{"SMILES_INPUT": "O=C1Nc2cc(Br)ccc2/C1=C1/Nc2ccccc2/C1=N\\OCCN1CCNCC1", "SYSTEM_UNDER_TEST": "Tyrosine-protein kinase ABL1 (Homo sapiens)", "CLASS": "condition met"}

Task: Evaluate `O=C1Nc2cc(Br)ccc2/C1=C1/Nc2ccccc2/C1=N\OCCN1CCN(CCOCCO)CC1` : pIC50 at minimum 7?
Output: condition met

* * *

SYSTEM_UNDER_TEST: Tyrosine-protein kinase JAK2 (Homo sapiens)
Sequence (O60674 whole entry): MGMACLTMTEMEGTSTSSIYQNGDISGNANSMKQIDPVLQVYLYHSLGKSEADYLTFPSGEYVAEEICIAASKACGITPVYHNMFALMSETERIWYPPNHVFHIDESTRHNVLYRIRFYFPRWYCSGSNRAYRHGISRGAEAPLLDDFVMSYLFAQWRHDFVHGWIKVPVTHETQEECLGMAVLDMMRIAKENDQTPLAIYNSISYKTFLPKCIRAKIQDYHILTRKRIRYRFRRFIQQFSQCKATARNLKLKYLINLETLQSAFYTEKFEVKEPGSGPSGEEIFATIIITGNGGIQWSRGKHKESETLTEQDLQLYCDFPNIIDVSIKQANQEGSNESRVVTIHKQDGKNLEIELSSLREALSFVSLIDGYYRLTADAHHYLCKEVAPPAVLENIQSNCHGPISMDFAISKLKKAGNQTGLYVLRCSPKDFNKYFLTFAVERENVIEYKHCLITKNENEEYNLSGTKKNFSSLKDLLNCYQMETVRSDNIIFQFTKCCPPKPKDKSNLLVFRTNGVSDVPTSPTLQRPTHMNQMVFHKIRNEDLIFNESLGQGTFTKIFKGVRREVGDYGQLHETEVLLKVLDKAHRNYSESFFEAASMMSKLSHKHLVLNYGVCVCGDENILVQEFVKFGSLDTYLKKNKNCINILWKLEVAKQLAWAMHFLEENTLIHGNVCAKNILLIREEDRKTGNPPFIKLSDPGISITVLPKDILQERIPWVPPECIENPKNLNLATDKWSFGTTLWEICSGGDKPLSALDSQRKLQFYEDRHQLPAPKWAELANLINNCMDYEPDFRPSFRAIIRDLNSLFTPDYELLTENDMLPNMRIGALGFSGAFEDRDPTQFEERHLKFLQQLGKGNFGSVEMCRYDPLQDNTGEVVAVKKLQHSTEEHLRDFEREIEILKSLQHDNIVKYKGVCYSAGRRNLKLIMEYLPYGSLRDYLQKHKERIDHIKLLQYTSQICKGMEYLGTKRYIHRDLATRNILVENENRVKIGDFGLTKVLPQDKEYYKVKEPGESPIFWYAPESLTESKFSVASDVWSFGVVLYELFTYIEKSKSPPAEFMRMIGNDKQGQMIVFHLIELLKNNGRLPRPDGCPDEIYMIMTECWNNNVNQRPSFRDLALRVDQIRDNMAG
ASSAY_COMMENT: Inhibition of recombinant JAK2 (unknown origin) after 120 mins in presence of [33P]ATP
MEASUREMENT_TYPE: log10 of IC50 (log10 of the value in µM)
Log10 applied to IC50; unit prior to transform: µM.

Task: Supply log10 of IC50 value. Item: `O=C1Nc2cc(Br)ccc2/C1=C1/Nc2ccccc2/C1=N\OCCN1CCNCC1`
Output: -0.65

* * *

SYSTEM_UNDER_TEST: Proto-oncogene tyrosine-protein kinase Src (Homo sapiens, UniProt P12931)
ASSAY_COMMENT: Inhibition of recombinant c-Src (unknown origin) after 120 mins in presence of [33P]ATP
MEASUREMENT_TYPE: IC50

Task: Supply IC50 value. Item: `O=C1Nc2cc(Br)ccc2/C1=C1/Nc2ccccc2/C1=N\OCCN1CCNCC1`
Output: < 0.5 nM

* * *

SYSTEM_UNDER_TEST: Tyrosine-protein kinase ABL1 (Homo sapiens)
ASSAY_COMMENT: Inhibition of recombinant ABL1 (unknown origin) after 120 mins in presence of [33P]ATP
Could you mark each record satisfied if its IC50 falls strictly under 500 nM, and not satisfied if it equals or exceeds it?

Task: Item `O=C1Nc2cc(Br)ccc2/C1=C1/Nc2ccccc2/C1=N\OCCN1CCCC1` : IC50 beneath 500 nM, strictly?
Output: satisfied

Data provenance: ChEMBL document CHEMBL4041496
